Each item that follows carries a reported binding signal.
- Experimental target: T1, UNK ZnF1-3 (human, UniProt Q9C0B0 31-174)
- T1 sequence: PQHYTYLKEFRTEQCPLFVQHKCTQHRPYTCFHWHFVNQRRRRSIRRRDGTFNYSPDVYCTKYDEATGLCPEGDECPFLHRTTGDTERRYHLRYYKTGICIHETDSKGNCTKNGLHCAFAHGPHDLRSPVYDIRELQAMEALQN
- Assay method text: nsRBNS (natural sequence RNA bind-n-seq); RBNS binding buffer (assumed for nsRBNS): 25 mM Tris pH 7.5, 150 mM KCl, 3 mM MgCl2, 0.01% Triton X-100, 500 ug/ml BSA, 20 U/ml SUPERase-In, 4 C; UNK is unkempt and MSI1 is Musashi-1; names of the RNAs are library labels; protein concentration not given here; high values mean tight binding
Over roughly 24,000 sequences, “enrichment r” has its median near 0.99; the highest 2% begin near 3.7. What follows is part of a selection rich in the highest values, with near analogues and random picks from the rest.

Binder: chr2:160855017:160855018:-_ENSMUSG00000057133_ENSMUST00000039782|mus_mus|FALSE|FALSE (ssRNA) RNA: GGGAGUUCUACAGUCCGACGAUCAUCCUUUUCCAGUUCUUCCAUUGUGGCCCAUUUACAAUGUAAAUAGGAAAAAUUUCUAUACUUAACGUAGAAAAGCUCUAGGUCGAAUGGAGGUUCUCCUGGGUGAACCUCCUGGACAGUCAACAGAGGAUUGAGCAUCA
binding signal: 0.614 enrichment R
--
Binder: chr17:47010600:47010601:-_ENSG00000159210_ENST00000290330|hu_hu|FALSE|FALSE (ssRNA) RNA: GGGAGUUCUACAGUCCGACGAUCACUGACAGUCACGUAGCCAUUCUCUGCCAGCUGCAGCACCACGGUGUGAUCCAUAUUGAGCUCAGCUGGAACAGACUGAAUGAGGUAAGUGCCGCCCACAGGGAUGAUGCCGAAGCCAGUCAACAGAGGAUUGAGCAUCA
binding signal: 0.843 enrichment R
--
Binder: chr5:176910979:176910980:-_ENSG00000196923_ENST00000355841|hu_hu|FALSE|FALSE (ssRNA) RNA: GGGAGUUCUACAGUCCGACGAUCCCCAGCGUCGAUCUUGAAGUCACAGCCAUGGCAUUUCGUGCCAAACAUCUUCUCAUAGUCUCGCUCGCAAUAGGGCACGCCCUCCUCCAUGUAGAAGGCCCUGUUCCGGAUGGGCGUCUUCAACAGAGGAUUGAGCAUCA
binding signal: 0.849 enrichment R
--
Binder: chr2:180329438:180329439:+_ENSMUSG00000049401_ENSMUST00000029087|mus_mus|FALSE|FALSE (ssRNA) RNA: GGGAGUUCUACAGUCCGACGAUCCUCAGAGACACCCUGAGGAUCUGGCUCCCCUGGGACCUGCUCCUGCCUGUUCCCCUCCAACUUCCUCUUCUUGCUUUCUUUGGGACUCGGGGACUUAGCCUCAUGCCUUUGGUCCCCAUCCAACAGAGGAUUGAGCAUCA
binding signal: 0.716 enrichment R
--
Binder: 54500970_54501090_1431_3pUTR_ENSMUSG00000039156_ENSMUST00000071083|mouse|control|control (ssRNA) RNA: GGGAGUUCUACAGUCCGACGAUCAGCUGCAUCUCAGCAUUUUGCCUCUUAAUAUUGUAGUACUGUACUUCAACUUCGUGUGUUAGCUGAAGCCAUUUCUGUAGUGCGUCAGGGACAGACCAGCUGCUUCUCAGUUCAAACUCCCAACAGAGGAUUGAGCAUCA
binding signal: 1.01 enrichment R

So what's the measured binding signal for this one? 32049908_32050383_1188_CDS_ENSMUSG00000039262_ENSMUST00000036691|mouse|control|control (ssRNA) RNA: GGGAGUUCUACAGUCCGACGAUCUUCUUUCCCAUCUUGGUCGUUCAUCUGGAACUGUCUGAAAGGAACACGGGGUUCCAGGCGGAGCUGAGGAAGGGGAAAAGAGCUUCGUUCCACCGUAGUCUGGUUCUCUGAUGACUGUGGCAACAGAGGAUUGAGCAUCA
0.807 enrichment R

So what's the measured binding signal for this one? chr17:32491106:32491107:-_ENSMUSG00000024050_ENSMUST00000163107|mus_hu|FALSE|FALSE (ssRNA) RNA: GGGAGUUCUACAGUCCGACGAUCAUCGAUAACCAAAAUGUGGCCACUGAAAAAAGUUAAAAGGUCAAUCAGCUCCUGGCUUCUAGCUGGCCCAGGAUUGCAAAAUAAAAAGAUCCACGUUCCUUAUUCUCUACACAAAACGCGCAACAGAGGAUUGAGCAUCA
1.24 enrichment R
